test: Oral toxicity in mice (LDO, LD50); format: in vivo; settings: mouse, in vivo, at 2000 mg/kg, read-out: deaths (LD50 column)
outcome.measure: mortality at 336 h (%)
Expressed in %, but write only the number.

Ask: Fill in: mortality at 336 h of CC1(C)Oc2ccc(NC3OC(=O)c4ccccc43)cc2O1 (stereo not shown) [Product 7] is ___
Result: 70

###

Reported values of % activity (inhibition of edema) for individual entries
system: rats; assay: Anti-inflammatory activity: carragenic test (carragenine-induced edema of the hind leg); assay type: in vivo, male rats; conditions: 200 mg/kg oral, 2H
Report the value in % with no unit label.

Guide cases for % activity (inhibition of edema), answers given:
compound	study.system	outcome.measure	quantity.unit	measured
Cc1cc2c(cc1NC1OC(=O)c3ccccc31)OCO2 (stereo not shown)	rats	% activity (inhibition of edema)	%	29
CC1(C)Oc2ccc(NC3OC(=O)c4ccccc43)cc2O1 (stereo not shown)	rats	% activity (inhibition of edema)	%	19
COc1ccc2c(c1OC)C(=O)OC2Nc1ccc2c(c1)OCCO2 (stereo not shown)	rats	% activity (inhibition of edema)	%	63

Ask: Item COc1ccc2c(c1OC)C(=O)OC2Nc1ccc2c(c1)OCO2 (stereo not shown) with rats - % activity (inhibition of edema)?
Result: 68

###

Assay: Oral toxicity in mice (LDO, LD50)
Assay type: in vivo
Conditions: mouse, in vivo, gummy julep (No. 1 and 13 in Tween), 2 weeks observation
Method: This toxicity is estimated by the calculation of the lethal dose of 50 (LD 50) which determines the fatal dose of the substance for 50% of the animals tested. […] All products were administered in gummy julep except No. 1 and No. 13 which were administered in Tween. The analgesic activity were determined in mice by utilizing as a nociceptive agent, phenylbenzoquinone (PBQ) (modification of the method by Siegmund and co-workers Proc. Soc. Exp. Biol. Med. 1957, 95, 729-31). […]
Some molecules, each annotated with its measured LD50 at 336 h.

molecule	measured
CCCC1(CC)Oc2ccc(NC3OC(=O)c4ccccc43)cc2O1 (centres unmarked) [Product 6]	≥ 2000 mg/kg

Ask: # get_value(readout='LD50 at 336 h', item= O=C(O)c1cccnc1Nc1cccc(C(F)(F)F)c1 [Niflumic acid] )
Result: ~350 mg/kg

Ask: LD50 at 336 h for O=C1OC(Nc2ccc3c(c2)OC2(CCCCC2)O3)c2ccccc21 (centres unmarked) [Product 3] ?
Result: ≥ 2000 mg/kg

Ask: Please report the recorded LD50 at 336 h for O=C1OC(Nc2ccc3c(c2)OCO3)c2ccccc21 (centres unmarked) [Product 1] .
Result: ~2600 mg/kg

Ask: Which value of LD50 at 336 h has been reported for O=C1OC(Nc2ccc3c(c2)OCCO3)c2ccccc21 (centres unmarked) [Product 13] in the records?
Result: ≥ 3000 mg/kg

Ask: # lookup: LD50 at 336 h of CCN(c1ccc2c(c1)OCO2)C1OC(=O)c2ccccc21 (centres unmarked) [Product 12]
Result: ~590 mg/kg

Ask: So what does the record say about LD50 at 336 h for CCC1(CC)Oc2ccc(NC3OC(=O)c4ccccc43)cc2O1 (centres unmarked) [Product 2] ?
Result: ~2000 mg/kg

###

Consider the following compounds and their measured % activity (inhibition of edema) readings.
test system: rats; test: Anti-inflammatory activity: carragenic test (carragenine-induced edema of the hind leg); type: in vivo, male rats; conditions: 150 mg/kg oral, 2H
Field: numeric (%). Do not append units.

Sample answers from the record:
compound	outcome.measure	quantity.unit	measured
COC(=O)c1cc2c(cc1NC1OC(=O)c3ccccc31)OCO2 (centres unmarked)	% activity (inhibition of edema)	%	12
O=C1OC(Nc2ccc3c(c2)OCC(CO)O3)c2ccccc21 (centres unmarked)	% activity (inhibition of edema)	%	27
O=C1OC(Nc2ccc3c(c2)OCCO3)c2ccccc21 (centres unmarked)	% activity (inhibition of edema)	%	77

Ask: Requested read-out: % activity (inhibition of edema). Entry: O=C(O)c1cc2c(cc1NC1OC(=O)c3ccccc31)OCO2 (centres unmarked)
Result: 15

Ask: % activity (inhibition of edema) lookup needed for CC(=O)OCC1COc2ccc(NC3OC(=O)c4ccccc43)cc2O1 (centres unmarked) , thanks.
Result: 21

Ask: Any idea what % activity (inhibition of edema) was measured for O=C1OC(Nc2ccc3c(c2)OC(CO)CO3)c2ccccc21 (centres unmarked) ?
Result: 16

Ask: Return reported % activity (inhibition of edema); argument: Cc1cc(NC2OC(=O)c3ccccc32)c(C)c2c1OCOC2 (centres unmarked)
Result: 35

Ask: Please look up its % activity (inhibition of edema): CC(=O)OCC1COc2cc(NC3OC(=O)c4ccccc43)ccc2O1 (centres unmarked)
Result: 16

###

system: mice; assay: Oral toxicity in mice (LDO, LD50); type: in vivo; details: gummy julep (No. 1 and 13 in Tween), 2 weeks observation
outcome.measure: LDO (maximum dose which did not lead to any mortality)

Ask: Endpoint output: LDO (maximum dose which did not lead to any mortality) of O=C1OC(Nc2ccc3c(c2)OCCO3)c2ccccc21 (centres unmarked) . Value?
Result: ≥ 1000 mg/kg

###

tested on: rats; assay: Anti-inflammatory activity: carragenic test (carragenine-induced edema of the hind leg); type: in vivo, male rats; conditions: 400 mg/kg oral, 4H
outcome.measure: % activity (inhibition of edema) (%)
Output spec: scalar in %, unitless text.

compound	measured
CCCC1(CC)Oc2ccc(NC3OC(=O)c4ccccc43)cc2O1 (stereo not drawn) [Product 6]	3
CC1(C)Oc2ccc(NC3OC(=O)c4ccccc43)cc2O1 (stereo not drawn) [Product 7]	25
COc1ccc2c(c1OC)C(=O)OC2Nc1ccc2c(c1)OCO2 (stereo not drawn) [Product 8]	48

Ask: Give its % activity (inhibition of edema) value. Item: CCCCC1(C)Oc2ccc(NC3OC(=O)c4ccccc43)cc2O1 (stereo not drawn) [Product 5]
Result: 17

Ask: May I ask what % activity (inhibition of edema) has been recorded for CCC1(CC)Oc2ccc(NC3OC(=O)c4ccccc43)cc2O1 (stereo not drawn) [Product 2] ?
Result: 20

Ask: For O=C1OC(Nc2ccc3c(c2)OC2(CCCCC2)O3)c2ccccc21 (stereo not drawn) [Product 3] , what is its reported % activity (inhibition of edema)?
Result: 21

Ask: Entry Cc1cc2c(cc1NC1OC(=O)c3ccccc31)OCO2 (stereo not drawn) [Product 9] : reported % activity (inhibition of edema) = ?
Result: 60

Ask: Which measured % activity (inhibition of edema) value corresponds to CCCC1(CCC)Oc2ccc(NC3OC(=O)c4ccccc43)cc2O1 (stereo not drawn) [Product 4] ?
Result: 13

Ask: I am curious: what % activity (inhibition of edema) value has been reported for COc1ccc2c(c1OC)C(=O)OC2Nc1ccc2c(c1)OCCO2 (stereo not drawn) [Product 14] ?
Result: 63

###

test system: mice; experiment: Oral toxicity in mice (LDO, LD50); format: in vivo; conditions: gummy julep (No. 1 and 13 in Tween), 2 weeks observation
outcome.measure: LDO (maximum dose which did not lead to any mortality)

Ask: // map CCCCC1(C)Oc2ccc(NC3OC(=O)c4ccccc43)cc2O1 (stereo not shown) to recorded LDO (maximum dose which did not lead to any mortality) (system: mice)
Result: > 2000 mg/kg

Ask: GET /values?readout=LDO (maximum dose which did not lead to any mortality)&system=mice&item= CC(=O)OCC1COc2ccc(NC3OC(=O)c4ccccc43)cc2O1 (stereo not shown)
Result: > 2000 mg/kg

Ask: API: value(readout=LDO (maximum dose which did not lead to any mortality), system=mice) for record O=C1OC(Nc2ccc3c(c2)COCO3)c2ccccc21 (stereo not shown)
Result: > 2000 mg/kg

Ask: Please tell me: LDO (maximum dose which did not lead to any mortality) of CC1(C)Oc2ccc(NC3OC(=O)c4ccccc43)cc2O1 (stereo not shown) , system mice?
Result: ~ 1000 mg/kg

###

assay: Oral toxicity in mice (LDO, LD50); format: in vivo; conditions: mouse, in vivo, gummy julep (No. 1 and 13 in Tween), 2 weeks observation
Documented LD50 at 336 h across a set of compounds

# annotated cases, reported LD50 at 336 h shown
compound	measured
Cc1cc2c(cc1NC1OC(=O)c3ccccc31)OCO2 (stereo not shown)	> 2000 mg/kg
CCCCC1(C)Oc2ccc(NC3OC(=O)c4ccccc43)cc2O1 (stereo not shown)	> 2000 mg/kg
COc1ccc2c(c1OC)C(=O)OC2Nc1ccc2c(c1)OCO2 (stereo not shown)	~1000 mg/kg

Now for another entry.
Ask: Which LD50 at 336 h value is on record for CCCC1(CCC)Oc2ccc(NC3OC(=O)c4ccccc43)cc2O1 (stereo not shown) ?
Result: ~2000 mg/kg

###

Examples of compounds with documented LDO (maximum dose which did not lead to any mortality) follow.
System: mice
Assay: Oral toxicity in mice (LDO, LD50)
Type: in vivo
Details: gummy julep (No. 1 and 13 in Tween), 2 weeks observation
Description: This toxicity is estimated by the calculation of the lethal dose of 50 (LD 50) which determines the fatal dose of the substance for 50% of the animals tested. […] All products were administered in gummy julep except No. 1 and No. 13 which were administered in Tween. The analgesic activity were determined in mice by utilizing as a nociceptive agent, phenylbenzoquinone (PBQ) (modification of the method by Siegmund and co-workers Proc. Soc. Exp. Biol. Med. 1957, 95, 729-31). […]

compound	measured
CCCC1(CC)Oc2ccc(NC3OC(=O)c4ccccc43)cc2O1 (stereo not shown)	1000 to 2000 mg/kg
Cc1cc2c(cc1NC1OC(=O)c3ccccc31)OCO2 (stereo not shown)	1000 to 2000 mg/kg
COc1ccc2c(c1OC)C(=O)OC2Nc1ccc2c(c1)OCCO2 (stereo not shown)	> 2000 mg/kg

Okay, next one:
Ask: // returns reported LDO (maximum dose which did not lead to any mortality) for input COc1ccc2c(c1OC)C(=O)OC2Nc1ccc2c(c1)OCO2 (stereo not shown)
Result: 750 to 1000 mg/kg
